Record form. Attribute: Helicity (%). Fill in for each entry.
# assay_details: CD spectroscopy and thermal denaturation of chimeric N-trimers
# Assay type: physicochemical
# condition_details: CD, PBS pH 7.4, 10 μM peptide
# Procedure: All measurements were performed on an MOS-450 system (BioLogic, Claix, France) at a 4.0 nm bandwidth, 0.1 nm resolution, 0.1 cm path length, 4.0 s response time and 50 nm/min scanning speed. […] Thermal denaturation was monitored by the ellipticity change at 222 nm by application of a thermal gradient from 15 °C to 90 °C with a 2 °C interval.
Bridge positions count the residues as written; N and C are the ends. I, II: the chains in the order shown.
Give bare numbers, in %.

Each substance below has a recorded value; state its Helicity (%).
1. I: Ac-IKKKIEAIEKLLQLTVWGIKQLQARIL-NH2 / II: Ac-IKKKIEAIEKLLQLTVWGIKQLQARIL-NH2 / III: Ac-IKKKIEAIEKLLQLTVWGIKQLQARIL-NH2 (amide I:4-II:9, I:9-III:4, II:4-III:9) [(IZ10N17)3]
2. I: Ac-IKKEQEAIKKKIEAIEKLLQLTVWGIKQLQARIL-NH2 / II: Ac-IKKEQEAIKKKIEAIEKLLQLTVWGIKQLQARIL-NH2 / III: Ac-IKKEQEAIKKKIEAIEKLLQLTVWGIKQLQARIL-NH2 (amide I:11-II:16, I:16-III:11, II:11-III:16) [(IZ17N17)3]
3. I: Ac-EQEAIKKKIEAIEKLLQLTVWGIKQLQARIL-NH2 / II: Ac-EQEAIKKKIEAIEKLLQLTVWGIKQLQARIL-NH2 / III: Ac-EQEAIKKKIEAIEKLLQLTVWGIKQLQARIL-NH2 (amide I:8-III:13, I:13-II:8, II:13-III:8) [(IZ14N17)3]

75
98
100

* * *

# measured_on: C34 (HIV-1 gp41 CHR peptide) (Human immunodeficiency virus type 1 group M subtype B, UniProt P04578)
# Sequence (P04578 628-661): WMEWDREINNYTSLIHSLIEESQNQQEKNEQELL
# Assay type: binding
# condition_details: CD, equimolar mixture 10 μM in PBS pH 7.4; θ222nm of 33000 for 100 % helicity
Bridge positions count the residues as written; N and C are the ends. I, II: the chains in the order shown.
endpoint_label: Helicity (%) of the 6HBs formed between chimeric N-peptides and C34
Give bare numbers, in %.

[
  {
    "substance": "I: Ac-IKKEQEAIKKKIEAIEKLLQLTVWGIKQLQARIL-NH2 / II: Ac-IKKEQEAIKKKIEAIEKLLQLTVWGIKQLQARIL-NH2 / III: Ac-IKKEQEAIKKKIEAIEKLLQLTVWGIKQLQARIL-NH2 (amide I:11-II:16, I:16-III:11, II:11-III:16) [(IZ17N17)3]",
    "readout_value": 70
  }
]

Each substance below has a recorded value; state its Helicity (%) of the 6HBs formed between chimeric N-peptides and C34.
1. I: Ac-IKKKIEAIEKAIEAQQHLLQLTVWGIKQLQARIL-NH2 / II: Ac-IKKKIEAIEKAIEAQQHLLQLTVWGIKQLQARIL-NH2 / III: Ac-IKKKIEAIEKAIEAQQHLLQLTVWGIKQLQARIL-NH2 (amide I:4-II:9, I:9-III:4, II:4-III:9) [(IZ10N24N)3]
2. I: Ac-EQEAIKKKIEAIEKAIEAQQHLLQLTVWGIKQLQARIL-NH2 / II: Ac-EQEAIKKKIEAIEKAIEAQQHLLQLTVWGIKQLQARIL-NH2 / III: Ac-EQEAIKKKIEAIEKAIEAQQHLLQLTVWGIKQLQARIL-NH2 (amide I:8-III:13, I:13-II:8, II:13-III:8) [(IZ14N24N)3]
3. I: Ac-EQEAIKKKIEAIEKLLQLTVWGIKQLQARILAVERYLK-NH2 / II: Ac-EQEAIKKKIEAIEKLLQLTVWGIKQLQARILAVERYLK-NH2 / III: Ac-EQEAIKKKIEAIEKLLQLTVWGIKQLQARILAVERYLK-NH2 (amide I:8-III:13, I:13-II:8, II:13-III:8) [(IZ14N24C)3]
4. I: Ac-EQEAIKKKIEAIEKLLQLTVWGIKQLQARIL-NH2 / II: Ac-EQEAIKKKIEAIEKLLQLTVWGIKQLQARIL-NH2 / III: Ac-EQEAIKKKIEAIEKLLQLTVWGIKQLQARIL-NH2 (amide I:8-III:13, I:13-II:8, II:13-III:8) [(IZ14N17)3]
5. I: Ac-IKKKIEAIEKLLQLTVWGIKQLQARIL-NH2 / II: Ac-IKKKIEAIEKLLQLTVWGIKQLQARIL-NH2 / III: Ac-IKKKIEAIEKLLQLTVWGIKQLQARIL-NH2 (amide I:4-II:9, I:9-III:4, II:4-III:9) [(IZ10N17)3]
6. I: Ac-IKKKIEAIEKLLQLTVWGIKQLQARILAVERYLK-NH2 / II: Ac-IKKKIEAIEKLLQLTVWGIKQLQARILAVERYLK-NH2 / III: Ac-IKKKIEAIEKLLQLTVWGIKQLQARILAVERYLK-NH2 (amide I:4-II:9, I:9-III:4, II:4-III:9) [(IZ10N24C)3]

1: 80; 2: 87; 3: 76; 4: 74; 5: 73; 6: 63

* * *

Record form. Attribute: CC50. Fill in for each entry.
# assay_details: in vitro
# Assay type: cell-based
# condition_details: human; uninfected MT-2 cells, XTT assay; read-out: CC50 (half maximal cytotoxic concentration)
Bridge positions count the residues as written; N and C are the ends. I, II: the chains in the order shown.
Answers are plain numbers, in µM.

[
  {
    "substance": "I: Ac-IKKKIEAIEKLLQLTVWGIKQLQARILAVERYLK-NH2 / II: Ac-IKKKIEAIEKLLQLTVWGIKQLQARILAVERYLK-NH2 / III: Ac-IKKKIEAIEKLLQLTVWGIKQLQARILAVERYLK-NH2 (amide I:4-II:9, I:9-III:4, II:4-III:9) [(IZ10N24C)3]",
    "endpoint_label": "CC50",
    "readout_value": 2
  }
]

Each substance below has a recorded value; state its CC50.
1. I: Ac-EQEAIKKKIEAIEKLLQLTVWGIKQLQARILAVERYLK-NH2 / II: Ac-EQEAIKKKIEAIEKLLQLTVWGIKQLQARILAVERYLK-NH2 / III: Ac-EQEAIKKKIEAIEKLLQLTVWGIKQLQARILAVERYLK-NH2 (amide I:8-III:13, I:13-II:8, II:13-III:8) [(IZ14N24C)3]
2. I: Ac-IKKKIEAIEKAIEAQQHLLQLTVWGIKQLQARIL-NH2 / II: Ac-IKKKIEAIEKAIEAQQHLLQLTVWGIKQLQARIL-NH2 / III: Ac-IKKKIEAIEKAIEAQQHLLQLTVWGIKQLQARIL-NH2 (amide I:4-II:9, I:9-III:4, II:4-III:9) [(IZ10N24N)3]
3. I: Ac-EQEAIKKKIEAIEKLLQLTVWGIKQLQARIL-NH2 / II: Ac-EQEAIKKKIEAIEKLLQLTVWGIKQLQARIL-NH2 / III: Ac-EQEAIKKKIEAIEKLLQLTVWGIKQLQARIL-NH2 (amide I:8-III:13, I:13-II:8, II:13-III:8) [(IZ14N17)3]

1. 7.7
2. 6.9
3. 7.3

* * *

# assay_details: CD spectroscopy and thermal denaturation of chimeric N-trimers
# Type: physicochemical
# condition_details: CD thermal denaturation at 222 nm, 15 °C to 90 °C, PBS pH 7.4, 10 μM
Bridge positions count the residues as written; N and C are the ends. I, II: the chains in the order shown.
Record form. Attribute: Tm (°C). Fill in for each entry.

// known answers, use as guide
[
  {
    "substance": "I: Ac-IKKEQEAIKKKIEAIEKLLQLTVWGIKQLQARIL-NH2 / II: Ac-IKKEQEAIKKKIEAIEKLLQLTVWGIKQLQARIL-NH2 / III: Ac-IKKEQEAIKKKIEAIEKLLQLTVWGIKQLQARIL-NH2 (amide I:11-II:16, I:16-III:11, II:11-III:16) [(IZ17N17)3]",
    "endpoint_label": "Tm (°C)",
    "readout_value": "> 90 °C"
  },
  {
    "substance": "I: Ac-IKKKIEAIEKLLQLTVWGIKQLQARILAVERYLK-NH2 / II: Ac-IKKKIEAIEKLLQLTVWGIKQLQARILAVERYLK-NH2 / III: Ac-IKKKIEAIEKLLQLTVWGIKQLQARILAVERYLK-NH2 (amide I:4-II:9, I:9-III:4, II:4-III:9) [(IZ10N24C)3]",
    "endpoint_label": "Tm (°C)",
    "readout_value": "> 90 °C"
  }
]

Shift focus to the following entry.
Looking for the measured Tm (°C) of I: Ac-EQEAIKKKIEAIEKLLQLTVWGIKQLQARIL-NH2 / II: Ac-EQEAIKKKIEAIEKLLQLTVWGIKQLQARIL-NH2 / III: Ac-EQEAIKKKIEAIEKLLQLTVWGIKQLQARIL-NH2 (amide I:8-III:13, I:13-II:8, II:13-III:8) [(IZ14N17)3] , can you help?
> 90 °C
